FYI, the data here is from PubChem BioAssay (EPA / NIEHS).

# Read-out: Cytochrome P450 3A4 (Homo sapiens)
# test-name: LTEA_HepaRG_CYP3A4: Life Technologies and Expression Analysis (LTEA) Assay for CYP3A4 using HepaRG (AID 2283487)
# details: mRNA level, 48 h; actives raise or lower the signal
Activity calls are given as the source filed them. How the source made its calls: active means hit-call score of the fitted dose curve at least 0.9, where 1 is the maximum; inactive means score below 0.9.
measured-metric: AC50

1) CC[C@H](NC(=O)c1cc(F)ccc1NS(=O)(=O)c1cccc2cccnc12)c1ccccc1    0.957 µM (active)
2) CC(C)(c1cc(Br)c(O)c(Br)c1)c1cc(Br)c(O)c(Br)c1    inactive
3) CC[C@@H]1C[C@H](N(Cc2cc(C(F)(F)F)cc(C(F)(F)F)c2)C(C)=O)c2cc(C(F)(F)F)ccc2N1C(=O)OC(C)C    0.29 µM (active)
4) O=C(O)c1ccccc1C(=O)OCc1ccccc1    inactive
5) O=C1O[C@H]([C@@H](O)CO)C(O)=C1O    inactive
6) CC(C)(O)c1ccc(CNC(=O)c2cccnc2Oc2ccc3nonc3c2)cc1    8.42 µM (active)
7) Clc1cc(Cl)c2c(c1)N=C1CCCCCN1C2    11.1 µM (active)
8) CN1C(=O)CC[C@H]1c1cccnc1    inactive
9) COc1ccc2cc(S(=O)(=O)N[C@H](CC(=O)N[C@H](Cc3ccc(CN4[C@H](C)CCC[C@@H]4C)cc3)C(=O)N(C)C(C)C)c3ccc4c(c3)OCO4)ccc2c1    24 µM (active)
10) Cc1ccc2oc(CN(Cc3ccccc3)C(=O)Nc3c(F)cc(F)cc3F)c(-c3ccc(Cl)cc3)c2c1    5.39 µM (active)
11) CN(C)C(=O)C1(N2CCCCC2)CCN(CC[C@@]2(c3ccc(Cl)c(Cl)c3)CN(C(=O)c3ccccc3)CCO2)CC1    25.7 µM (active)

---

# Read-out: Intercellular Adhesion Molecule 1 (ICAM1), ICAM1 (gene 3383)
# test-name: LTEA_HepaRG_ICAM1: Life Technologies and Expression Analysis (LTEA) Assay for Intercellular Adhesion Molecule 1 (ICAM1) using HepaRG (AID 2283507)
# details: mRNA level, 48 h; actives raise or lower the signal
Calls of active or inactive are those of the source. Rule for the calls: active = hit-call score of the fitted dose curve at least 0.9, where 1 is the maximum; inactive = score below 0.9.
Labels: 1 for active, 0 for inactive

1) OC12N=C(c3ccccc3)SC1Cc1cc(Cl)ccc12 (stereo not given)    0
2) O=C1O[C@H]([C@@H](O)CO)C(O)=C1O    0
3) CCN(Cc1cccc(S(=O)(=O)O)c1)c1ccc(C(=C2C=CC(=[N+](CC)Cc3cccc(S(=O)(=O)O)c3)C=C2)c2ccccc2S(=O)(=O)[O-])cc1    0
4) Cc1cc2c(cc1C(F)(F)F)N(C(=O)Nc1ccc(Oc3cccnc3C)nc1)CC2    0
5) CC(C)(c1cc(Br)c(O)c(Br)c1)c1cc(Br)c(O)c(Br)c1    1

---

This section presents molecules with their documented AC50 values.
# target-or-system: bovine Dopamine Receptor (DR), Non-selective Binding, DRD1 (gene 281125)
# test-name: NVS_GPCR_bDR_NonSelective: NovaScreen (NVS) G Protein-Coupled Receptor Assay for bovine Dopamine Receptor (DR), Non-selective Binding (AID 2283241)
Inconclusive results are not listed. The source made the active and inactive calls. The calls were made as follows: active = hit-call score of the fitted dose curve at least 0.9, where 1 is the maximum; inconclusive = response in the unintended direction; inactive = score below 0.9.
measured-metric: AC50

1. COc1cc(C(=O)NC2CCN(C)CC2)ccc1Nc1ncc2c(n1)N(C1CCCC1)CC(F)(F)C(=O)N2C    11.2 µM (active)
2. CCN(CC)C(=O)c1cc(S(=O)(=O)Cc2ccccc2)c(N2CCC(c3ccccc3)CC2)cc1N(CC)CCN(C)C    6.88 µM (active)
3. O=C1c2ccccc2C(=O)N1CCc1noc(-c2ccc(CN3CCCCCC3)s2)n1    14.6 µM (active)
4. CN(C)C(=O)C1(N2CCCCC2)CCN(CC[C@@]2(c3ccc(Cl)c(Cl)c3)CN(C(=O)c3ccccc3)CCO2)CC1    4.5 µM (active)

---

# test-name: LTEA_HepaRG_LDH_cytotoxicity: Cytotoxicity Assessment in the Life Technologies and Expression Analysis (LTEA) Assay (AID 2283563)
# Description: LTEA_HepaRG is a cell based, multiplexed-readout assay that uses HepaRG, a human liver cell line, with measurements taken at 48 hours after chemical dosing on a 96-well plate.LTEA_HepaRG_LDH_cytotoxicity is one of 102 assay component(s) measured in the LTEA HepaRG cell culture assay. It is a marker of cell viability / cytotoxicity.Data from the assay component LTEA_HepaRG_LDH_cytotoxicity was analyzed into 1 endpoint. […]
Active and inactive are the calls of the source. Rule for the calls: active = hit-call score of the fitted dose curve at least 0.9, where 1 is the maximum; inconclusive = response in the unintended direction; inactive = score below 0.9.
Labels: True for active, False for inactive

1) Clc1cc(Cl)c2c(c1)N=C1CCCCCN1C2    False
2) O=C(O)Cn1c(=O)n(Cc2ccc(Br)cc2F)c(=O)c2ccc(Cl)cc21    False
3) CN(C)c1ccc(C(=C2C=CC(=[N+](C)C)C=C2)c2ccc(N(C)C)cc2)cc1    True
4) c1ccc2ccccc2c1    False
5) CCCCCc1ccc(N)cc1    False
6) CCCCOC(=O)CC(CC(=O)OCCCC)(OC(C)=O)C(=O)OCCCC    False
7) CCCCCCCCOC(=O)c1cc(O)c(O)c(O)c1    False
8) CCOC(=O)O[C@H](C)OC(=O)c1ccc2c(c1)cc(C(=O)NC1CCN(C(C)C)CC1)n2Cc1cc(-c2ccc(Cl)s2)on1    True
9) CC(=O)N1CCN(c2ccc(OC[C@H]3CO[C@](Cn4ccnc4)(c4ccc(Cl)cc4Cl)O3)cc2)CC1    True
10) CC(C)(C)c1csc(-c2cc3cc(OCc4ccccc4CC(=O)O)ccc3o2)n1    True
11) O=C(O)Cc1cc(I)c(Oc2ccc(O)c(I)c2)c(I)c1    False
12) CC[C@H](NC(=O)c1cc(F)ccc1NS(=O)(=O)c1cccc2cccnc12)c1ccccc1    False
13) CCCCCCCCOc1ccc(C(=O)c2ccccc2)c(O)c1    False
14) CCN(Cc1cccnc1)C(=O)c1cccc(Cl)c1[C@]1(C)C(=O)N(Cc2ccc(OC)cc2OC)c2ccc(Cl)cc21    True
15) Cc1occc1C(=O)Nc1ccc(C(=O)N2CCC(F)(F)/C(=C\C(=O)N3CCC(N4CCCCC4)CC3)c3ccccc32)cc1    True
16) CCO[Si](CCCNC(N)=O)(OCC)OCC    False
17) Cc1cccc2ccccc12    False
18) Cc1ccc2oc(CN(Cc3ccccc3)C(=O)Nc3c(F)cc(F)cc3F)c(-c3ccc(Cl)cc3)c2c1    False
19) O=c1c(-c2ccc(O)cc2)coc2cc(O)cc(O)c12    False
20) O=C(OCCCCCCOC(=O)c1ccccc1)c1ccccc1    False
21) CN1C(=O)CC[C@H]1c1cccnc1    False
22) OC12N=C(c3ccccc3)SC1Cc1cc(Cl)ccc12 (stereo not drawn)    False
23) CC1(C)NC(=O)N(c2ccc([N+](=O)[O-])c(C(F)(F)F)c2)C1=O    False
24) Cc1cc(F)ccc1-c1cc(N2CC[C@@H](O)[C@H]2CO)ncc1N(C)C(=O)C(C)(C)c1cc(C(F)(F)F)cc(C(F)(F)F)c1    True
25) NCc1cccc(C2CCN(C(=O)c3ccc(C#Cc4ccccc4F)o3)CC2)c1    True
26) CC(C)(O)c1ccc(CNC(=O)c2cccnc2Oc2ccc3nonc3c2)cc1    False
27) OCCO    False
28) CCCC(=O)OCCC(C)C    False
29) CC(O)CC(C)(C)O (stereo not drawn)    False
30) CCCCCCCCCC(=O)O    False
31) O=C1O[C@H]([C@@H](O)CO)C(O)=C1O    False
32) CCCCCCCC[Si](OCC)(OCC)OCC    False
33) CCCOC(=O)c1cc(O)c(O)c(O)c1    False
34) CC/C(=C(/CC)c1ccc(O)cc1)c1ccc(O)cc1    True
35) O=c1[nH]sc2ccccc12    False
36) COc1cccc([C@H](O)C2CCN(CCc3ccc(F)cc3)CC2)c1OC    False
37) Cc1cc2c(cc1C(F)(F)F)N(C(=O)Nc1ccc(Oc3cccnc3C)nc1)CC2    True
38) CC1=CC(=O)/C(=C(/C)O)C(=O)O1    False
39) c1ccc(C[n+]2cccc3ccccc32)cc1    True
40) O=C(O)c1ccccc1-n1cc(C(=O)O)c(=O)c2cc(Nc3c(F)cc(F)cc3Cl)c(Cl)cc21    False
41) Oc1ccccc1    False
42) COCC(C)OCC(C)OCC(C)O (stereo not drawn)    False
43) CC[C@@H]1C[C@H](N(Cc2cc(C(F)(F)F)cc(C(F)(F)F)c2)C(C)=O)c2cc(C(F)(F)F)ccc2N1C(=O)OC(C)C    False

---

# Read-out: Signal transducer and activator of transcription 3 (Homo sapiens) (UniProt P40763)
# Sequence (P40763 whole entry, looked up): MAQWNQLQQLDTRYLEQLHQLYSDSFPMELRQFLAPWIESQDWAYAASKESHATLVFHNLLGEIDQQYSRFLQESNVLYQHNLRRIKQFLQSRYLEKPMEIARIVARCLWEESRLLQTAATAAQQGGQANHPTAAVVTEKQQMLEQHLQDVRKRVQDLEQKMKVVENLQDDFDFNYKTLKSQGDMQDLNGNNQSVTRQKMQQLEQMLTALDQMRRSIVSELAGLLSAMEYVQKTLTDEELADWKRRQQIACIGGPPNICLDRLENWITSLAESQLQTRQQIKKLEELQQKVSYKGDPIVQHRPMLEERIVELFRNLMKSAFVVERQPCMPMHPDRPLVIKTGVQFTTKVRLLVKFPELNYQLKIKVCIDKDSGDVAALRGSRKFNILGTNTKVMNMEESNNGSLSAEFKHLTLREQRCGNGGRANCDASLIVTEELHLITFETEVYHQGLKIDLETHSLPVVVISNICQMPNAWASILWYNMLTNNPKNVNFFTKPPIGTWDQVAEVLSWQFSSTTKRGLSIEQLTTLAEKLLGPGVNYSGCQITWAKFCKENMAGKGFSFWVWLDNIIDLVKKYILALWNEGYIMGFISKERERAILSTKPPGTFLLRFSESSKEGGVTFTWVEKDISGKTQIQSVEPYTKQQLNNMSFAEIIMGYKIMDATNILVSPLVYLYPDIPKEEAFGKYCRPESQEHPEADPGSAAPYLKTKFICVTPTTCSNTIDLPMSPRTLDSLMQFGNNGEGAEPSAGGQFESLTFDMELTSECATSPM
# test-name: LTEA_HepaRG_STAT3: Life Technologies and Expression Analysis (LTEA) Assay for Signal transducer and activator of transcription (STAT3) using HepaRG (AID 2283529)
# details: mRNA level, 48 h; actives raise or lower the signal
Calls of active or inactive are those of the source. How the source made its calls: active means hit-call score of the fitted dose curve at least 0.9, where 1 is the maximum; inactive means score below 0.9.
Labels: active, inactive

1) CC1(C)NC(=O)N(c2ccc([N+](=O)[O-])c(C(F)(F)F)c2)C1=O    inactive
2) O=C(OCCCCCCOC(=O)c1ccccc1)c1ccccc1    inactive
3) CC[C@H](NC(=O)c1cc(F)ccc1NS(=O)(=O)c1cccc2cccnc12)c1ccccc1    inactive
4) O=c1[nH]sc2ccccc12    inactive
5) CCOC(=O)O[C@H](C)OC(=O)c1ccc2c(c1)cc(C(=O)NC1CCN(C(C)C)CC1)n2Cc1cc(-c2ccc(Cl)s2)on1    inactive
6) CCCCCCCCOC(=O)c1cc(O)c(O)c(O)c1    inactive
7) Cc1cn([C@H]2C[C@H](N=[N+]=[N-])[C@@H](CO)O2)c(=O)[nH]c1=O    inactive
8) CCCCOC(=O)CC(CC(=O)OCCCC)(OC(C)=O)C(=O)OCCCC    inactive
9) O=C1O[C@H]([C@@H](O)CO)C(O)=C1O    inactive
10) CCCCCCCC[Si](OCC)(OCC)OCC    inactive
11) O=C(O)Cc1cc(I)c(Oc2ccc(O)c(I)c2)c(I)c1    inactive
12) CC(C)(C)c1csc(-c2cc3cc(OCc4ccccc4CC(=O)O)ccc3o2)n1    active
13) O=c1ccc2ccccc2o1    inactive
14) O=C(O)Cn1c(=O)n(Cc2ccc(Br)cc2F)c(=O)c2ccc(Cl)cc21    inactive
15) Cc1ncc(CO)c(CO)c1O    inactive
16) CN1C(=O)CC[C@H]1c1cccnc1    inactive
17) Cc1cc(F)ccc1-c1cc(N2CC[C@@H](O)[C@H]2CO)ncc1N(C)C(=O)C(C)(C)c1cc(C(F)(F)F)cc(C(F)(F)F)c1    inactive
18) CC1=CC(=O)/C(=C(/C)O)C(=O)O1    inactive
19) CCN(Cc1cccc(S(=O)(=O)O)c1)c1ccc(C(=C2C=CC(=[N+](CC)Cc3cccc(S(=O)(=O)O)c3)C=C2)c2ccccc2S(=O)(=O)[O-])cc1    inactive
20) CCN(CC)C(=O)c1cc(S(=O)(=O)Cc2ccccc2)c(N2CCC(c3ccccc3)CC2)cc1N(CC)CCN(C)C    inactive
21) O=c1c(-c2ccc(O)cc2)coc2cc(O)cc(O)c12    inactive
22) O=C=NCCCCCCN=C=O    inactive
23) CCCCCCCCCCCO    inactive
24) CC/C(=C(/CC)c1ccc(O)cc1)c1ccc(O)cc1    active
25) O=CCCCC=O    inactive
26) Clc1cc(Cl)c2c(c1)N=C1CCCCCN1C2    inactive
27) CCCCCCCCN(C)CCCCCCCC    inactive
28) Cc1c2ccccc2c(C)c2c1ccc1ccccc12    inactive
29) Cc1oc2c(NC(=O)c3c(Cl)cccc3Cl)cccc2c1C(C)(C)O    inactive
30) CN(C[C@@H](CC[N+]12CCC(C3CCCCC3)(CC1)CC2)c1ccc(Cl)c(Cl)c1)C(=O)c1cc(C(F)(F)F)cc(C(F)(F)F)c1    inactive
31) CC[C@@H]1C[C@H](N(Cc2cc(C(F)(F)F)cc(C(F)(F)F)c2)C(C)=O)c2cc(C(F)(F)F)ccc2N1C(=O)OC(C)C    inactive
32) CC(C)(c1cc(Br)c(O)c(Br)c1)c1cc(Br)c(O)c(Br)c1    inactive
33) CCCOC(=O)c1cc(O)c(O)c(O)c1    inactive
34) CN1C(=O)N(c2ccccc2Br)Cc2cnc(Nc3ccc4c(c3)OCC(CO)O4)nc21 (centres undefined)    active
